target: Telomerase reverse transcriptase (Homo sapiens); assay: Inhibitory activity against telomerase (Compound released from DNA/DNA heteroduplex derivatized resin [sequence (TTAGGG)3)
Sequence (O14746 whole entry): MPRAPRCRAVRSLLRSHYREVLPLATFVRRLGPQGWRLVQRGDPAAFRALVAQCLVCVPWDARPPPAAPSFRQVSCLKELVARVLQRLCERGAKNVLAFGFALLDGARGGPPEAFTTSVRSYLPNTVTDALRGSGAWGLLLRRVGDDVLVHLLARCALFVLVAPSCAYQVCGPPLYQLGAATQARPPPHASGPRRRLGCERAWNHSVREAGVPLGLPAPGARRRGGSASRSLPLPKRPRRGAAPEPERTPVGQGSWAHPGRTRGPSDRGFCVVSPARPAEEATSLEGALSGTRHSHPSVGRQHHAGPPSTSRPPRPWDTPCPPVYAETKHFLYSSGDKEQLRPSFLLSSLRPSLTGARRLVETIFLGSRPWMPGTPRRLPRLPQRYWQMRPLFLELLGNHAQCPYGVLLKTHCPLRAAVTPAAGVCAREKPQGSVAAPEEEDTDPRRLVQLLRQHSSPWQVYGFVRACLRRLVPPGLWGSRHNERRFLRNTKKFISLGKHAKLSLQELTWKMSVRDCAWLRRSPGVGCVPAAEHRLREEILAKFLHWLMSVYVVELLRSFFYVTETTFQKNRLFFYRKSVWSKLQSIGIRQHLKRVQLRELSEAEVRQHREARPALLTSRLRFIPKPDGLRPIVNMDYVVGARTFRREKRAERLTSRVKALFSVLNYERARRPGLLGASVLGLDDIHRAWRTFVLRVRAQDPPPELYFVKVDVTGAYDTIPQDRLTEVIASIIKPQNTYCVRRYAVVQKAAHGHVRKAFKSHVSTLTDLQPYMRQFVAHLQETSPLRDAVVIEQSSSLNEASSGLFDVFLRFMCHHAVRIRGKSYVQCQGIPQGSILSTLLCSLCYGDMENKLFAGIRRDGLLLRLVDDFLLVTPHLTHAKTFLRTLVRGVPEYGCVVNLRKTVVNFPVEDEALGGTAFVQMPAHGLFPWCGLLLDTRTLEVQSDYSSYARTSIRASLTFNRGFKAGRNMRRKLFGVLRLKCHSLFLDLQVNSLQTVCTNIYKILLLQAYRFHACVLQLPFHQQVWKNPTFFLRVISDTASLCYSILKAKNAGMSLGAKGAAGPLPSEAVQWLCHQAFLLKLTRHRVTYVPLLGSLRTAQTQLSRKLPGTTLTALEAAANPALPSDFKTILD
parameter: pIC50
Answers are plain numbers, as −log10 of the molar value.

Give measured pIC50 for every item shown.
1. Cc1cc2cc3cc(C)c(N)cc3nc2cc1N
2. CC[n+]1c(-c2ccccc2)c2cc(N)ccc2c2ccc(N)cc21 [HOMIDIUM BROMIDE]
3. CCOc1ccc2nc3cc(N)ccc3c(N)c2c1
4. CN(C)c1ccc2cc3ccc(N(C)C)cc3nc2c1

1: 4.66; 2: 5.48; 3: 5.09; 4: 4.91

----------
biological target: UniProtKB O14746; experiment: Inhibitory activity against telomerase (Compound released from underivatized resin
Task for the reader: assign each of the following molecules its reported pIC50.
Give bare numbers, as −log10 of the molar value.

molecule	pIC50
CCOc1ccc2nc3cc(N)ccc3c(N)c2c1	5.09
Cc1cc2cc3cc(C)c(N)cc3nc2cc1N	4.66
CC[n+]1c(-c2ccccc2)c2cc(N)ccc2c2ccc(N)cc21 [HOMIDIUM BROMIDE]	5.48

For the next question, use this molecule.
Look at this molecule and give its reported pIC50. CN(C)c1ccc2cc3ccc(N(C)C)cc3nc2c1
4.91

----------
molecular target: Telomerase reverse transcriptase (Homo sapiens); assay: Inhibitory activity against telomerase (Compound released from RNA/DNA heteroduplex derivatized resin [sequence (TTAGGG)3)
Exercise: state measured IC50 for each of the compounds provided.
Give bare numbers, in µM.

# count of solved cases: 2
compound	parameter	val
CN(C)c1ccc2cc3ccc(N(C)C)cc3nc2c1 [ACRIDINE ORANGE]	IC50	12.2
CC[n+]1c(-c2ccccc2)c2cc(N)ccc2c2ccc(N)cc21 [HOMIDIUM BROMIDE]	IC50	3.3

For every item in the list below, what is its measured IC50?
1. CCOc1ccc2nc3cc(N)ccc3c(N)c2c1 [ETHACRIDINE]
2. Cc1cc2cc3cc(C)c(N)cc3nc2cc1N

8.2
21.7
